subject_of_test: T1, human activated protein C (human, UniProt P04070 43-197; P04070 212-461)
T1 construct: In the plasma assays aPC is generated in human plasma with Protac; also called aPC; haPC
assay_info: Octet BLI, antibody on Protein A sensor, huAPC 3.13-50 nM, 1:1 model, 25 C, pH 7.4
The following binders are listed with their measured koff values.
Give a bare numeral; the unit s⁻¹ is implied.

Examples from the recorded data:
binder	koff / s⁻¹
HAPC-14-4 (antibody, V domains shown, Whole IgG, backbone hIgG1; also called HPAC 14-4) VH: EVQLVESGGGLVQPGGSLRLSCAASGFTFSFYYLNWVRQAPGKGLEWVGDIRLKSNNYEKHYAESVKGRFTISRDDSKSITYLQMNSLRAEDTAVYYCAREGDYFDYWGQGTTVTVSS VL: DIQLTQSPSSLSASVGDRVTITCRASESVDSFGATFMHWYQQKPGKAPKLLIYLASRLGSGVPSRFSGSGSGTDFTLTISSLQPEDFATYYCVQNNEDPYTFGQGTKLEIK	0.00126
HAPC-14-10 (antibody, V domains shown, Whole IgG, backbone hIgG1; also called HPAC 14-10) VH: EVQLVESGGGLVQPGGSLRLSCAASGFTFSNYYLNWVRQAPGKGLEWVGDIRLKKNNYEKHYAESVKGRFTISRDDSKSITYLQMNSLRAEDTAVYYCAREGDTFDYWGQGTTVTVSS VL: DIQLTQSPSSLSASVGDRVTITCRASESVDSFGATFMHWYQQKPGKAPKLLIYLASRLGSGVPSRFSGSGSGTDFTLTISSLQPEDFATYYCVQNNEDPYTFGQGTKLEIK	0.00428

Proceed to the following item.
For reference, reported koff for HAPC-14-2 (antibody, V domains shown, Whole IgG, backbone hIgG1; also called HPAC 14-2) VH: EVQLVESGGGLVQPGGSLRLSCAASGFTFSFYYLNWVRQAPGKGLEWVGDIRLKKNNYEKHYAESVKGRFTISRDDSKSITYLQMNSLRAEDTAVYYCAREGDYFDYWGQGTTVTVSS VL: DIQLTQSPSSLSASVGDRVTITCRASESVDSFGATFMHWYQQKPGKAPKLLIYLASWLESGVPSRFSGSGSGTDFTLTISSLQPEDFATYYCVQNNEDPYTFGQGTKLEIK stands at 0.00116
